B1: tRNA (parent)
chain: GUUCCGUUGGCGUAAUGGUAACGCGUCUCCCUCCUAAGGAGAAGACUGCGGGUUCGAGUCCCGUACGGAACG

- Variants of: B1
- ASSAY_EXPLANATION: yeast fitness relative to wild type (ratio to wild type); higher = fitter; tRNA-Arg(CCU), competitive growth, 37 C, YPD
Variants at the floor of the assay were thinned out.
MEASURED_PARAMETER: yeast fitness

[[record]]
variant_description = "G9C U28A C46U C60A A70C"
measured_parameter = "yeast fitness"
result = "≤ 0.5"

[[record]]
variant_description = "U28G A36G A65U"
measured_parameter = "yeast fitness"
result = "≤ 0.5"

[[record]]
variant_description = "U16C U59A C62A G67C"
measured_parameter = "yeast fitness"
result = "≤ 0.5"

[[record]]
variant_description = "U2G C33U A65C"
measured_parameter = "yeast fitness"
result = "≤ 0.5"


Entry under test: U7C A37G A42C C49G C66G A70U . Its yeast fitness was ≤ 0.5

Entry under test: C11G C49U G68U . Its yeast fitness was ≤ 0.5

Entry under test: A20G U47C U54G C66G . Its yeast fitness was ≤ 0.5

Entry under test: U2A C5A G68C . Its yeast fitness was ≤ 0.5

Entry under test: C5U U7A A45G G67A . Its yeast fitness was ≤ 0.5

Entry under test: G17A A20G C34U C55G . Its yeast fitness was ≤ 0.5

Entry under test: A14C C34U G39C C55U G56C . Its yeast fitness was ≤ 0.5

Entry under test: G6A G10A G39C A70C . Its yeast fitness was ≤ 0.5

Entry under test: C4U C31G A40G A45C U53A A70U . Its yeast fitness was ≤ 0.5

Entry under test: C27G C60U G67C . Its yeast fitness was ≤ 0.5

Entry under test: C4G C5G C11A G38A G67A . Its yeast fitness was ≤ 0.5

Entry under test: C5U G44C A45U . Its yeast fitness was 0.657

Entry under test: U7A U19A C29A G68C . Its yeast fitness was ≤ 0.5

Entry under test: U2G U64A . Its yeast fitness was 0.776

Entry under test: U26G G68C . Its yeast fitness was 0.596

Entry under test: U7C C30U C66G . Its yeast fitness was ≤ 0.5

Entry under test: A21G G56C A65G . Its yeast fitness was 0.583

Entry under test: U8C G25A A36C A70G . Its yeast fitness was 0.624

Entry under test: A20G C31A G68A . Its yeast fitness was 0.575

Entry under test: G39A C62U A70U . Its yeast fitness was 0.593

Entry under test: C22U A37U G58A A69C . Its yeast fitness was ≤ 0.5

Entry under test: A14C G18C G56A . Its yeast fitness was ≤ 0.5

Entry under test: C60A A70G . Its yeast fitness was 0.531

Entry under test: C46G C49G C62A . Its yeast fitness was 0.61

Entry under test: C30A C31G G39C . Its yeast fitness was 0.535

Entry under test: U2C G18A G25A . Its yeast fitness was 0.599
